Molecular target: COA7 (Homo sapiens, UniProt Q96BR5)
Sequence (Q96BR5 2-231): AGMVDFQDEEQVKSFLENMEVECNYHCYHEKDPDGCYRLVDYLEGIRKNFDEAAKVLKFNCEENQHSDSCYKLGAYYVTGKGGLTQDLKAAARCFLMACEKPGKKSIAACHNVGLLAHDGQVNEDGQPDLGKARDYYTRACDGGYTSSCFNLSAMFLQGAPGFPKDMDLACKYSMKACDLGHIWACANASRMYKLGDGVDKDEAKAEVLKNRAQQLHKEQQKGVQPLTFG

{"columns": ["compound", "Kd, µM"],
 "data": [
  ["C=CC1=C(C)C2=Cc3c(C=C)c(C)c4[n]3[Fe]([Cl])[n]3c(c(C)c(CCC(=O)O)c3=CC3=NC(=C4)C(C)=C3CCC(=O)O)=CC1=N2 [hemin]", 1.4]
]}
